Data origin, for the record: paper PMC10569638

I'd be grateful if you could share measured pIC50 for these entries.
# study.target: zebrafish αβδ nAChR (δ-type) (Danio rerio, UniProt Q75XT1+Q98880)
# method.summary: TEVC inhibition of ACh-elicited nAChR current in Xenopus oocytes, δ-type
# Type: cell-based
# assay.context: IC50, δ-type, current elicited by 100 μM ACh, -80 mV, mean ± sem
Value format note: pIC50 is -log10 of concentration (mol/L); just state the number.

The compound listed as CC(=O)O[C@H]1C[C@@H]2CC[C@@H]3[C@H](CC[C@@]4(C)[C@H]3C[C@H]([N+]3(C)CCCCC3)[C@@H]4OC(C)=O)[C@@]2(C)C[C@@H]1N1CCCCC1 shows pIC50 equal to 9.15

Per the record, CC(=O)O[C@H]1C[C@@H]2CC[C@@H]3[C@H](CC[C@@]4(C)[C@H]3C[C@H]([N+]3(C)CCCCC3)[C@@H]4OC(C)=O)[C@@]2(C)C[C@@H]1[N+]1(C)CCCCC1 has pIC50 of 6.94

response.value for C=CC[N+]1([C@H]2C[C@H]3[C@@H]4CC[C@H]5C[C@H](O)[C@@H](N6CCOCC6)C[C@]5(C)[C@H]4CC[C@]3(C)[C@H]2OC(C)=O)CCCC1 (field: pIC50) = 8.38

###

# study.target: zebrafish αβδ nAChR (δ-type) (Danio rerio, UniProt Q75XT1+Q98880)
# method.summary: TEVC inhibition of ACh-elicited nAChR current in Xenopus oocytes, δ-type
# Type: cell-based
measured.metric: pIC50
Notebook: values listed as pIC50 are -log10 of the concentration (mol/L).

Entry COc1cc2c3cc1Oc1cc(ccc1O)C[C@@H]1c4c(cc(OC)c(O)c4Oc4ccc(cc4)C[C@@H]3N(C)CC2)CC[N+]1(C)C , zebrafish αβδ nAChR (δ-type) (Danio rerio, UniProt Q75XT1+Q98880) data, pIC50 value: 6.91

###

Please provide measured Hill coefficient for the entries that follow.
# study.target: zebrafish αβδ nAChR (δ-type) (Danio rerio, UniProt Q75XT1+Q98880)
# method.summary: TEVC inhibition of ACh-elicited nAChR current in Xenopus oocytes, δ-type
# Type: cell-based
# assay.context: inhibition, δ-type, 100 μM ACh, mean ± sem
# Procedure: The bath solution was ND96. […] Oocytes were incubated around 30 sec in the bath solution containing inhibitors of identical concentration. Recordings were performed at room temperature. Holding potential was -80 mV. Vecuronium and rocuronium were purchased from Tokyo Chemical Industry. Pancuronium and d-tubocurarine were purchased from Alomone Labs and FUJIFILM Wako Chemicals, respectively. Fitting algorism is identical to that of ACh.

Value of measured Hill coefficient for the entry C=CC[N+]1([C@H]2C[C@H]3[C@@H]4CC[C@H]5C[C@H](O)[C@@H](N6CCOCC6)C[C@]5(C)[C@H]4CC[C@]3(C)[C@H]2OC(C)=O)CCCC1 [rocuronium] : 1.1 ± 0.1

Documented Hill coefficient of COc1cc2c3cc1Oc1cc(ccc1O)C[C@@H]1c4c(cc(OC)c(O)c4Oc4ccc(cc4)C[C@@H]3N(C)CC2)CC[N+]1(C)C [d-tubocurarine] : 1.1 ± 0.1

Notebook: CC(=O)O[C@H]1C[C@@H]2CC[C@@H]3[C@H](CC[C@@]4(C)[C@H]3C[C@H]([N+]3(C)CCCCC3)[C@@H]4OC(C)=O)[C@@]2(C)C[C@@H]1N1CCCCC1 [vecuronium] , Hill coefficient read as 1.0 ± 0.1

So for CC(=O)O[C@H]1C[C@@H]2CC[C@@H]3[C@H](CC[C@@]4(C)[C@H]3C[C@H]([N+]3(C)CCCCC3)[C@@H]4OC(C)=O)[C@@]2(C)C[C@@H]1[N+]1(C)CCCCC1 [pancuronium] , the logged Hill coefficient turned out to be 1.3 ± 0.4

###

# study.target: zebrafish αβδε nAChR (ε-type) (Danio rerio, UniProt A2BG85+Q75XT1+Q98880)
# Sequence (Q98880 21-456): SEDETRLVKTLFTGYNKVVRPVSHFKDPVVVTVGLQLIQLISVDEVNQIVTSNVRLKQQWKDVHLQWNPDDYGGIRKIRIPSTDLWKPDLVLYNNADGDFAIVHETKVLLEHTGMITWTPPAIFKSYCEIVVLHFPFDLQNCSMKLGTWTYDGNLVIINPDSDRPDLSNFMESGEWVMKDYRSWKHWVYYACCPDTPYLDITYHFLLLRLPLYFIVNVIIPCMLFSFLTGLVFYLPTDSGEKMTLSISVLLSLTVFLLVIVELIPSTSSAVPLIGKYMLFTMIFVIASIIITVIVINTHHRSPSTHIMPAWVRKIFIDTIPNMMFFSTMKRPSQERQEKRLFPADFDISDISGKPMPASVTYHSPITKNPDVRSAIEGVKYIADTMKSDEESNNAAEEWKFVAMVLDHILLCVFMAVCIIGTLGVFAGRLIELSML
# Sequence (Q75XT1 22-518): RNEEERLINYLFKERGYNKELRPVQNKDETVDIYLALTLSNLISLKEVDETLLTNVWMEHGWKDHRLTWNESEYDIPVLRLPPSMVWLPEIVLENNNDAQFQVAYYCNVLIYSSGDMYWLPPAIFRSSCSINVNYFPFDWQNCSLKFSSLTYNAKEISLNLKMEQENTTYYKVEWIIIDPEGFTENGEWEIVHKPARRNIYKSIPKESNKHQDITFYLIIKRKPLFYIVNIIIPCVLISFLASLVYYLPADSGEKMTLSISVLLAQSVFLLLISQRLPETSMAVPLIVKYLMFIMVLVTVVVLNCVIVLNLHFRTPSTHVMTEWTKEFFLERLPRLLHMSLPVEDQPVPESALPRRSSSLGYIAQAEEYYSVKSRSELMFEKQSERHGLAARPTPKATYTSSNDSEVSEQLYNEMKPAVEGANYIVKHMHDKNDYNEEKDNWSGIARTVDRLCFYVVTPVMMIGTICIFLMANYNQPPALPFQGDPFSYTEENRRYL
# Sequence (A2BG85 27-517): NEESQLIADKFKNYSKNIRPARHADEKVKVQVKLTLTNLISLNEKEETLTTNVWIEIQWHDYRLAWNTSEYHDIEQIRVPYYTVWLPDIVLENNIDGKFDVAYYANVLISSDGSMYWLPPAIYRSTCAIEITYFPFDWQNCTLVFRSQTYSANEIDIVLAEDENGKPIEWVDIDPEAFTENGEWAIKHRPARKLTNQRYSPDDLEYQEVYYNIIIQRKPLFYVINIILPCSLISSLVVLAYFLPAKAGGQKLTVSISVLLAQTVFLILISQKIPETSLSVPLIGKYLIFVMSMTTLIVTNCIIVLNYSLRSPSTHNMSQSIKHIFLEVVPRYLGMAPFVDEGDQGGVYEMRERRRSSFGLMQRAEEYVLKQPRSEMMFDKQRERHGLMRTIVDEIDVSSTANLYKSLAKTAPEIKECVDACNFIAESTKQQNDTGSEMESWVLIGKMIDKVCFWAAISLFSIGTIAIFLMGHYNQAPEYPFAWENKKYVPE
# Sequence (G1FMP8 23-492 partner): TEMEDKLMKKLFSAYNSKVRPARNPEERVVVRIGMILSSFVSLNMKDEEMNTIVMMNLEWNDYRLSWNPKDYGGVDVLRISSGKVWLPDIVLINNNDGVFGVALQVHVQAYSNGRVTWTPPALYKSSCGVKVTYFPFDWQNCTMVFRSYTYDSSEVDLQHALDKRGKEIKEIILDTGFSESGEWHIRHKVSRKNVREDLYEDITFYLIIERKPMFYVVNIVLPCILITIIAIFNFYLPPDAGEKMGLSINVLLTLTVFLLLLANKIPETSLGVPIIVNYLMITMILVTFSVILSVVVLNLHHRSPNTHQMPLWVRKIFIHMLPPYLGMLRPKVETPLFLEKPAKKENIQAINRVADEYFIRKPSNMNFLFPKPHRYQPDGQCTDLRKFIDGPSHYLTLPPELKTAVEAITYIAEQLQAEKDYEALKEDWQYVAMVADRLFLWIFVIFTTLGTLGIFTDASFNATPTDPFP
# method.summary: TEVC inhibition of ACh-elicited nAChR current in Xenopus oocytes, ε-type
# Type: cell-based
# assay.context: IC50, ε-type, by 2 μM ACh, mean ± sem
# Method: The bath solution was ND96. […] Oocytes were incubated around 30 sec in the bath solution containing inhibitors of identical concentration. Recordings were performed at room temperature. Holding potential was -80 mV. Vecuronium and rocuronium were purchased from Tokyo Chemical Industry. Pancuronium and d-tubocurarine were purchased from Alomone Labs and FUJIFILM Wako Chemicals, respectively. Fitting algorism is identical to that of ACh.
measured.metric: IC50 (nM)
Give just the number in nM; leave the unit off.

Record summary for CC(=O)O[C@H]1C[C@@H]2CC[C@@H]3[C@H](CC[C@@]4(C)[C@H]3C[C@H]([N+]3(C)CCCCC3)[C@@H]4OC(C)=O)[C@@]2(C)C[C@@H]1[N+]1(C)CCCCC1 [pancuronium] : reported IC50 = 12.5

###

# study.target: zebrafish αβδ nAChR (δ-type) (Danio rerio, UniProt Q75XT1+Q98880)
# method.summary: TEVC inhibition of ACh-elicited nAChR current in Xenopus oocytes, δ-type
# Assay type: cell-based
# assay.context: IC50, δ-type, by 2 μM ACh, mean ± sem
measured.metric: IC50 (nM)
Numeric answer only, unit nM assumed.

The recorded IC50 for entry CC(=O)O[C@H]1C[C@@H]2CC[C@@H]3[C@H](CC[C@@]4(C)[C@H]3C[C@H]([N+]3(C)CCCCC3)[C@@H]4OC(C)=O)[C@@]2(C)C[C@@H]1[N+]1(C)CCCCC1 equals 109
